# experimentalSystem: cGMP-dependent protein kinase 1 (Homo sapiens)
# studyConditions: at 10 µM
# maps each entry to its residual activity
Please reply with the bare figure in % and do not write the unit itself.

Example entries begin here.
smilesRepr | residual activity / %
COc1cc2ncnc(Nc3ccc(O)c(Br)c3)c2cc1OC | 47
CCN(CC)CCCCN1c2ccccc2Oc2ccc(Cl)cc21 | 94
Nc1n[nH]c2nnc(-c3c(-c4ccccc4)nn4ccccc34)cc12 | 76
Cc1ccc(NC2=CC(=O)c3sc(C)nc3C2=O)cc1 | 88
CC(C)n1cnc2/c(=N/c3cccc(Cl)c3)nc(NCCO)[nH]c21 | 72

Please turn your attention to the following entry.
Returns the measured residual activity for the input compound. Input: Cc1cc2ncc(-c3ccccc3)nc2cc1C
94

---

# experimentalSystem: Receptor-interacting serine/threonine-protein kinase 2 (Homo sapiens)
# studyConditions: at 1 µM
# Description: Millipore: Percentage of residual kinase activity of RIPK2 at 1uM relative to control. Control inhibitor: Phosphoric acid* at 0.3uM. Buffer: 8 mM MOPS pH 7.0, 0.2 mM EDTA
Flag rule - residual activity less than 70% flags met; the remaining entries get not met.

Record excerpt, results attached:
smilesRepr | labelClass
COc1cc2ncnc(N3CCN(C(=O)Nc4ccc(Oc5ccccc5)cc4)CC3)c2cc1OC | not met
c1ccc(-c2n[nH]cc2-c2ccnc3ccccc23)nc1 | met
CC(=O)c1ccc(N2CCOCC2)cc1O | not met
COc1cc2ncnc(Nc3ccc(Oc4ccccc4)cc3)c2cc1OC | met

For this compound, is residual activity lower than 70%? Nc1n[nH]c2nnc(-c3c(-c4ccccc4)nn4ccccc34)cc12
not met

---

Reported residual activity by item:
# experimentalSystem: Serine/threonine-protein kinase D1 (Homo sapiens) (UniProt Q15139)
# Sequence (Q15139 whole entry): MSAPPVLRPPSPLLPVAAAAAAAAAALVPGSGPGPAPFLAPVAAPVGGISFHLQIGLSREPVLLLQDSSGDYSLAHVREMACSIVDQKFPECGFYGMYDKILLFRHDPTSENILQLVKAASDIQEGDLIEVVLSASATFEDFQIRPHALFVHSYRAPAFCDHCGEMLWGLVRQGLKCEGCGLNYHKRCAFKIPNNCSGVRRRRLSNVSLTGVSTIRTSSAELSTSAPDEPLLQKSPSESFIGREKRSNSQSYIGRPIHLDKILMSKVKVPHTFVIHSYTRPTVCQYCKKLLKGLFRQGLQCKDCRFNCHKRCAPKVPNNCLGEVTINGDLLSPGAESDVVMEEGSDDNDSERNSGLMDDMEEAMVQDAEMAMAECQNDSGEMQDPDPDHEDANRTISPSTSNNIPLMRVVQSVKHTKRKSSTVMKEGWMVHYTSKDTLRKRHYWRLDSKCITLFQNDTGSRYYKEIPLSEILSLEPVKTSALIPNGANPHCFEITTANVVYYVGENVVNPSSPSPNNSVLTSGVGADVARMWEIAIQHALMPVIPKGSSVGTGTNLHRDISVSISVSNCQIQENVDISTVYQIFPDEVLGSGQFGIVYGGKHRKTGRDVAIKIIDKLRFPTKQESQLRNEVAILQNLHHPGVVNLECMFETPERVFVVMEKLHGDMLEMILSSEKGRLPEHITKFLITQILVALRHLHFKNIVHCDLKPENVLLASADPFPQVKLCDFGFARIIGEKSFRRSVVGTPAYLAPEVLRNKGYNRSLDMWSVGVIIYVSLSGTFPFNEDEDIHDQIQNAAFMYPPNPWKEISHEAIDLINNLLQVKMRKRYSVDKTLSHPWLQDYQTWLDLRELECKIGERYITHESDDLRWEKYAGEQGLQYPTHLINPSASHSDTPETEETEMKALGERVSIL
# studyConditions: at 1 µM
Give just the numeric value; % need not be written.

Some compounds with known residual activity results, for comparison:
smilesRepr | valueUnit | residual activity
COc1ccc(C(=O)Nc2sc3c(c2C(N)=O)CCCC3)cc1OC | % | 89
O=[N+]([O-])c1ccc(-c2nc(-c3ccc(F)cc3)c(-c3ccncc3)[nH]2)cc1 | % | 64
Cn1nc2c3c(cccc31)C(=O)c1ccccc1-2 | % | 61
O=c1c2ccccc2[nH]c(=S)n1CCN1CCC(=C(c2ccc(F)cc2)c2ccc(F)cc2)CC1 | % | 113

Item Cc1cncc2cccc(S(=O)(=O)N3CCCN(C(=O)CN)C[C@H]3C)c12 has what recorded residual activity?
83

---

Each entry below carries its recorded residual activity.
# experimentalSystem: Ephrin type-B receptor 2 (Homo sapiens) (UniProt P29323)
# Sequence (P29323 whole entry): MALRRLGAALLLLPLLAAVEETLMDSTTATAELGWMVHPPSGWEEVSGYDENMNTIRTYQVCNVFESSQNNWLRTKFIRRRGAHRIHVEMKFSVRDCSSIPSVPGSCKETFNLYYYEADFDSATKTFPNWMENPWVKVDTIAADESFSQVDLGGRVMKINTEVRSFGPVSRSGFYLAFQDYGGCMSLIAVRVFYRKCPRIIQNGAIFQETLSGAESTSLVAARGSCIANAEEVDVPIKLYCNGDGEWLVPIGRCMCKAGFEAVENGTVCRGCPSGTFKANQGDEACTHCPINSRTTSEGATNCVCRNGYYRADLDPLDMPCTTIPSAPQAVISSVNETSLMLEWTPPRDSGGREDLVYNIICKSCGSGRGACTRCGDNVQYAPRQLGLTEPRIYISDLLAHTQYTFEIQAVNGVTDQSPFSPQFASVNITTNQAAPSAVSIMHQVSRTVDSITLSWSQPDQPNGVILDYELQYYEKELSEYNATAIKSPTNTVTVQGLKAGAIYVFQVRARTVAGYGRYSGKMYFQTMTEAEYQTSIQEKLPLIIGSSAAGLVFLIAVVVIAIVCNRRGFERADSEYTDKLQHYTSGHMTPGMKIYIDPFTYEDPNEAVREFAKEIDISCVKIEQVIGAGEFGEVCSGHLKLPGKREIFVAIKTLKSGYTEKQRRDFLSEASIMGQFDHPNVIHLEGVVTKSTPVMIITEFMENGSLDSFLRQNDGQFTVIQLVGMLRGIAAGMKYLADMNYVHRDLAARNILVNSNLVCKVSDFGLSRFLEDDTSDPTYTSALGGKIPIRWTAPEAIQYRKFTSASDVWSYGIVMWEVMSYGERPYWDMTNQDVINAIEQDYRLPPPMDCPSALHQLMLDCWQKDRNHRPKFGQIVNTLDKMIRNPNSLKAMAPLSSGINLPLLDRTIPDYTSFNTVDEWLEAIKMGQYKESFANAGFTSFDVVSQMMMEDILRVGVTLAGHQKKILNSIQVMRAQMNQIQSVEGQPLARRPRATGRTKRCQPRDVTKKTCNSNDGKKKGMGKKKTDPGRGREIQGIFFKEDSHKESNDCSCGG
# studyConditions: at 1 µM
// note: answer is a bare numeric in %

smilesRepr | obsValue
CCC(=O)Nc1ccc2ncnc(Nc3cccc(Br)c3)c2c1 | 105
COc1cc2ncnc(N3CCN(C(=O)Nc4ccc(Oc5ccccc5)cc4)CC3)c2cc1OC | 114
CO[C@H]1C[C@@H]2CC[C@@H](C)[C@@](O)(O2)C(=O)C(=O)N2CCCC[C@H]2C(=O)O[C@H]([C@H](C)C[C@@H]2CC[C@@H](O)[C@H](OC)C2)CC(=O)[C@H](C)/C=C(\C)[C@@H](O)[C@@H](OC)C(=O)[C@H](C)C[C@H](C)/C=C/C=C/C=C/1C | 121
O=C1c2ccccc2-[n+]2ccc3c([nH]c4ccccc43)c21 | 114
Oc1ccc(-c2nc(-c3ccc(F)cc3)c(-c3ccncc3)[nH]2)cc1 | 94

// lookup residual activity for CC(C)n1cnc2/c(=N/c3cccc(Cl)c3)nc(NCCO)[nH]c21
102

Value lookup for residual activity; key = CCN(CC)C(=O)c1ccc(Nc2nc(OCC3CCCCC3)c3nc[nH]c3n2)cc1
103

Entry under review: COc1ccc(OC)c2c(=S)c3ccccc3[nH]c12 . Reported residual activity?
114

Any idea what its residual activity is? The compound is COc1cc2ncnc(Nc3ccc(O)c(Br)c3)c2cc1OC
65

---

A collection of molecules and their measured residual activity
# experimentalSystem: Cyclin-dependent kinase 1/cyclin B1 (Homo sapiens) (UniProt P06493+P14635)
# Sequence (P06493 whole entry, looked up): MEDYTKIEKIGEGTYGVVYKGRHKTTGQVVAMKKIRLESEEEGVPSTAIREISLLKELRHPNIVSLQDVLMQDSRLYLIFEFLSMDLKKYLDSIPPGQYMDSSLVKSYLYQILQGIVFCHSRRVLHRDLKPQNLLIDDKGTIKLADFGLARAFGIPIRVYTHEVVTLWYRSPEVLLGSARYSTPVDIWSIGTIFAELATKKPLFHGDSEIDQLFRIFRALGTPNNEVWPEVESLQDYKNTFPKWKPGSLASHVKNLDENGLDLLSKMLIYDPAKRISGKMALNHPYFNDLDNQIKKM
# Sequence (P14635 whole entry, looked up): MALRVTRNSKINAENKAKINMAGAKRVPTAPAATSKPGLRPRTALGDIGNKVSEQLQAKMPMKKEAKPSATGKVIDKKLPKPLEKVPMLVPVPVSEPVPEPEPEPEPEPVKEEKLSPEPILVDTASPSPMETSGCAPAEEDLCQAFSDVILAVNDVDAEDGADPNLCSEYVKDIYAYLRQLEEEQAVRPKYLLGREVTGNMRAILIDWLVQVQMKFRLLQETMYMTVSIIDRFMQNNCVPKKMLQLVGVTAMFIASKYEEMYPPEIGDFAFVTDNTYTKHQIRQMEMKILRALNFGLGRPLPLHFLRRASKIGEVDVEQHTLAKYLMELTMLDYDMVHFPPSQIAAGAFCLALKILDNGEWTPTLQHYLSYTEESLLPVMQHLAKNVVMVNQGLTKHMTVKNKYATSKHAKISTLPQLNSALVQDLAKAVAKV
# studyConditions: at 1 µM
Report the value in % with no unit label.

Reference set, count: 3
smilesRepr | residual activity (%)
CN(C)CCCn1cc(C2=C(c3c[nH]c4ccccc34)C(=O)NC2=O)c2ccccc21 | 102
O=C(O)c1ccc2c3c1cccc3c(=O)n1c3ccccc3nc21 | 62
CC#CC(=O)Nc1cc2c(Nc3ccc(F)c(Cl)c3)ncnc2cn1 | 107

Test system Cyclin-dependent kinase 1/cyclin B1 (Homo sapiens) (UniProt P06493+P14635); read-out residual activity; what value for NC(=O)c1ccc2[nH]c(-c3ccc(Oc4ccc(Cl)cc4)cc3)nc2c1 ?
93

Given the entry CCOc1cc2ncnc(Nc3cccc(Br)c3)c2cc1OCC , what residual activity was observed with Cyclin-dependent kinase 1/cyclin B1 (Homo sapiens) (UniProt P06493+P14635)?
93

residual activity of O=c1cc(-c2cccc3c2Sc2ccccc2S3)oc(N2CCOCC2)c1 on Cyclin-dependent kinase 1/cyclin B1 (Homo sapiens) (UniProt P06493+P14635)?
101

---

# residual activity listing for each entry below
# experimentalSystem: Mitogen-activated protein kinase kinase kinase 9 (Homo sapiens) (UniProt P80192)
# Sequence (P80192 whole entry, looked up): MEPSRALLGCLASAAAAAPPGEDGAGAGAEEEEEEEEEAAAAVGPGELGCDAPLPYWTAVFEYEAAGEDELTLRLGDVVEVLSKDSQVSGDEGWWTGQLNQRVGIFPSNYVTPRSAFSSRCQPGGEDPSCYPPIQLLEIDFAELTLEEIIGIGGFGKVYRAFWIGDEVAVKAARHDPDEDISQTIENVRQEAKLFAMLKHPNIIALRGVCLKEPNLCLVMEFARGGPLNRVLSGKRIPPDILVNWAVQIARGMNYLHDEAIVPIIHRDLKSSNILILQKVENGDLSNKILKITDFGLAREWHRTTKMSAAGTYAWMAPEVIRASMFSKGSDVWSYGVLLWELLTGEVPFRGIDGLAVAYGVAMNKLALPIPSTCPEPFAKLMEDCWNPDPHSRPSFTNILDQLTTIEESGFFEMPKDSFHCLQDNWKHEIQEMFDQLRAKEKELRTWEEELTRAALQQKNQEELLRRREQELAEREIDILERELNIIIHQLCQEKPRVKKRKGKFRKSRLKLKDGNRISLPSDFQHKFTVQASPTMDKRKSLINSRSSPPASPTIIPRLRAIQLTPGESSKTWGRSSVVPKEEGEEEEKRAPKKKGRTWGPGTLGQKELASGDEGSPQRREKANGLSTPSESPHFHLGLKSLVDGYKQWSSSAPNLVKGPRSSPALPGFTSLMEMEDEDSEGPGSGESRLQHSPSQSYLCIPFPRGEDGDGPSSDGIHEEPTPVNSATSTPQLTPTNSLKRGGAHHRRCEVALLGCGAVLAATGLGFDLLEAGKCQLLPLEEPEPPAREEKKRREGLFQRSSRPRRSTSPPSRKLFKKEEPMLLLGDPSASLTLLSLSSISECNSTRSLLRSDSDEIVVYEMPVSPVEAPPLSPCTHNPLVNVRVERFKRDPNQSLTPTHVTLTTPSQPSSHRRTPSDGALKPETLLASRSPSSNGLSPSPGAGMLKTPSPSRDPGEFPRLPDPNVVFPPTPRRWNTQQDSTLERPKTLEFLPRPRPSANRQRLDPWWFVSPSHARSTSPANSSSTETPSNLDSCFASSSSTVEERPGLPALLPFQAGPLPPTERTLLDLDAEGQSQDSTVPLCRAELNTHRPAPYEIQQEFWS
# studyConditions: at 1 µM
Give the value in % but do not write % after it.

Past entries and their recorded results:
smilesRepr | experimentalSystem | residual activity, %
N#Cc1cnc2cnc(NCc3cccnc3)cc2c1Nc1ccc(F)c(Cl)c1 | Mitogen-activated protein kinase kinase kinase 9 (Homo sapiens) (UniProt P80192) | 99
CO[C@@H]1[C@H](N(C)C(=O)c2ccccc2)C[C@H]2O[C@]1(C)n1c3ccccc3c3c4c(c5c6ccccc6n2c5c31)C(=O)NC4 | Mitogen-activated protein kinase kinase kinase 9 (Homo sapiens) (UniProt P80192) | 1
O=Nc1c(-c2c(O)[nH]c3ccccc23)[nH]c2ccccc12 | Mitogen-activated protein kinase kinase kinase 9 (Homo sapiens) (UniProt P80192) | 6
Cc1cccc(-c2[nH]c(C(C)(C)C)nc2-c2ccc3c(c2)OCO3)n1 | Mitogen-activated protein kinase kinase kinase 9 (Homo sapiens) (UniProt P80192) | 99

Moving on to another compound below.
Data request, read-out residual activity, for O=C1NC(=O)/C(=C\c2ccc3nccnc3c2)S1
80

---

# experimentalSystem: Serine/threonine-protein kinase tousled-like 2 (Homo sapiens)
# studyConditions: at 1 µM
quantityKind: residual activity (%)
The reply should contain only the number, in %.

compound | residual activity / %
COc1cc2ncnc(Nc3ccc(Oc4ccccc4)cc3)c2cc1OC | 106
CCC(=O)Nc1ccc2ncnc(Nc3cccc(Br)c3)c2c1 | 103
O=C(O)c1ccc2c3c1cccc3c(=O)n1c3ccccc3nc21 | 104
COc1cccc(-c2cc(=O)c3ccccc3o2)c1N | 98
Cn1cnc2cc3c(Nc4cccc(Br)c4)ncnc3cc21 | 103

Please look up its residual activity: O=C1c2ccccc2-[n+]2ccc3c([nH]c4ccccc43)c21
80

# residual activity lookup, item O=C1NC(=O)/C(=C\c2ccc3nccnc3c2)S1
103

State the recorded residual activity for this entry: Nc1n[nH]c2nnc(-c3c(-c4ccccc4)nn4ccccc34)cc12
89

Find the recorded residual activity belonging to CC[n+]1c(/C=C/N(C)c2ccccc2)n(-c2ccccc2)c2ccc(-c3nc4ccccc4s3)cc21 and report it.
109

Endpoint output: residual activity of O=C1Nc2ccccc2/C1=C1/Nc2ccccc2/C1=N\OCCC(O)CO (stereo unspecified) . Value?
38

Which residual activity value is on record for O=C(Nc1cccc(Nc2nccc(Nc3cccc(C(F)(F)F)c3)n2)c1)C1CC1 ?
109

---

# experimentalSystem: Ephrin type-B receptor 3 (Homo sapiens)
# studyConditions: at 10 µM
# Description: Millipore: Percentage of residual kinase activity of EPHB3 at 10uM relative to control. Control inhibitor: PP2 at 30.0uM. Buffer: 8 mM MOPS pH 7.0, 0.2 mM EDTA, 10 mM MnCl2
Listed here: items and their measured residual activity.
The reply should contain only the number, in %.

Below, 5 compounds whose answers are already recorded.
smilesRepr | residual activity / %
CC(=O)c1ccc(N2CCOCC2)cc1O | 107
CCOc1cc2ncnc(Nc3cccc(Br)c3)c2cc1OCC | 126
COc1cc2ncnc(Nc3ccc(O)c(Br)c3)c2cc1OC | 123
Cc1ccc(NC2=CC(=O)c3sc(C)nc3C2=O)cc1 | 99
NC(=O)c1ccc2[nH]c(-c3ccc(Oc4ccc(Cl)cc4)cc3)nc2c1 | 94

Missing value: residual activity, Ephrin type-B receptor 3 (Homo sapiens), entry CCC(=O)Nc1ccc2ncnc(Nc3cccc(Br)c3)c2c1 . Fill in?
120

What value of residual activity on Ephrin type-B receptor 3 (Homo sapiens) does O=C1NC(=O)c2cc(Nc3ccc(F)cc3)c(Nc3ccc(F)cc3)cc21 have?
105

---

Catalogue of residual activity values
# experimentalSystem: Epidermal growth factor receptor (Homo sapiens)
# studyConditions: at 1 µM
Write it as a number; the unit % goes unstated.

Return residual activity measured with Epidermal growth factor receptor (Homo sapiens) given this compound: O=C(Nc1cccc(Nc2cc(Nc3cccc(C(F)(F)F)c3)ncn2)c1)C1CC1
-2

Enter reported residual activity observed with Epidermal growth factor receptor (Homo sapiens) for CO[C@@H]1[C@H](N(C)C(=O)c2ccccc2)C[C@H]2O[C@]1(C)n1c3ccccc3c3c4c(c5c6ccccc6n2c5c31)C(=O)NC4
101

---

# experimentalSystem: Tyrosine-protein kinase receptor TYRO3 (Homo sapiens) (UniProt Q06418)
# Sequence (Q06418 whole entry): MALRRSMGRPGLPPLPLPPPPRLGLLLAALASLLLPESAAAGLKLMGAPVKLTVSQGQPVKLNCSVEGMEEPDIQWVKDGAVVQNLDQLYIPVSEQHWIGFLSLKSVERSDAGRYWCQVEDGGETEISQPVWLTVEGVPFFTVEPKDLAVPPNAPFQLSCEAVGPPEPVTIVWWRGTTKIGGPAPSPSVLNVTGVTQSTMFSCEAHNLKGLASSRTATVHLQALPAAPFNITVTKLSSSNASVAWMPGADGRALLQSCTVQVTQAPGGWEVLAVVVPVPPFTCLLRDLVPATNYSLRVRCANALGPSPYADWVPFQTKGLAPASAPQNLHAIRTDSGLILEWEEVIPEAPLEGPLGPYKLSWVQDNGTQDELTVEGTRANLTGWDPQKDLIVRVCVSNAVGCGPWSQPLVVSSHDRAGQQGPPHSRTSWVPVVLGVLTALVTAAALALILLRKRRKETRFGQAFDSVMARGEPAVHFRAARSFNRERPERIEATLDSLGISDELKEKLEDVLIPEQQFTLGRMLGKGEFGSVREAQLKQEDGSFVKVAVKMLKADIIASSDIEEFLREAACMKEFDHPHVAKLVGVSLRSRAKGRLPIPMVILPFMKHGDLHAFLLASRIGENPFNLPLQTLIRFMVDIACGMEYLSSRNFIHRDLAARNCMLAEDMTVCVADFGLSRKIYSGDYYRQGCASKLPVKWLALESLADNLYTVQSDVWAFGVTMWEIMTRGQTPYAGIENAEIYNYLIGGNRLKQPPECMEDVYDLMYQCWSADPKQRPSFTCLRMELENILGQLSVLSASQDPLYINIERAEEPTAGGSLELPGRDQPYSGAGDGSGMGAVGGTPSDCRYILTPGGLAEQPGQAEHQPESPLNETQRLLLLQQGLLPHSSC
# studyConditions: at 1 µM
Each entry below carries its reported residual activity.
Report only the number, with the unit % understood.

# annotated cases, reported residual activity shown
smilesRepr | quantityKind | valueUnit | obsValue
COc1cc2ncnc(Nc3ccc(NC(=O)c4ccccc4)cc3)c2cc1OC | residual activity | % | 94
O=C(O)c1ccc2c3c1cccc3c(=O)n1c3ccccc3nc21 | residual activity | % | 98
CC[n+]1c(/C=C/N(C)c2ccccc2)n(-c2ccccc2)c2ccc(-c3nc4ccccc4s3)cc21 | residual activity | % | 99
Cc1cncc2cccc(S(=O)(=O)N3CCCN(C(=O)CN)C[C@H]3C)c12 | residual activity | % | 83
Cc1ccc(S(=O)(=O)/C=C/C#N)cc1 | residual activity | % | 107

May I ask what residual activity has been recorded for CCN(CC)CCCCN1c2ccccc2Oc2ccc(Cl)cc21 ?
108

Field request: residual activity | item: CNc1cc2c(Nc3cccc(Br)c3)ncnc2cn1
77

Dear colleague, I am looking for the recorded residual activity of the following compound: COc1ccc(OC)c2c(=S)c3ccccc3[nH]c12
108

Requested field: residual activity. Item: CC(C)n1cnc2/c(=N/c3cccc(Cl)c3)nc(NCCO)[nH]c21
118

Look at this compound and give its reported residual activity. c1ccc2c(-c3ccncc3)c[nH]c2c1
91

Would you kindly share the measured residual activity for CCOc1cc2ncnc(Nc3cccc(Br)c3)c2cc1OCC ?
51

# get_value(readout='residual activity', item= Cc1cccc(-c2[nH]c(C(C)(C)C)nc2-c2ccc3c(c2)OCO3)n1 )
97

Given O=[N+]([O-])c1ccc(-c2nc(-c3ccc(F)cc3)c(-c3ccncc3)[nH]2)cc1 , state its recorded residual activity.
86

Given the compound COc1cc2ncc(-c3ccccc3)nc2cc1OC , what is its reported residual activity?
96
